- Tested on: ARAT
- EXPERIMENT_DESCRIPTION: Assay for ARAT activity, RPE microsomes
- Assay type: biochemical, bovine
- EXPERIMENTAL_CONDITIONS: 10 μm compound
Field: % Inhibition ARAT (10 μm). Provide a value for each of the compounds that follow.

Query string: Assign % Inhibition ARAT (10 μm) to the following record: "CCCCCCCCCCCCC/C=C/[C@@H](O)[C@H](CO)NC(C)=O"
Result string: 19% +/− 12

The following compounds each have a reported value; give each one's % Inhibition ARAT (10 μm).
1. CC(C)=CCC/C(C)=C/CC/C(C)=C/CC/C(C)=C/CO
2. CC(C)=CCCC(C)=CCCC(C)=CCO

Result string:
["38% +/− 12", "23% +/− 18"]

The reported numbers originate from patent US20020143059A1.
